Data origin, for the record: the supplement of paper PMC10567573

B1: GLTSCR2 (parent)
chain: YNPSFEDHQTLLSAAHEVELQRQK

Variants of: B1
Assay: protein stability index of a GFP-peptide fusion (GPS, HEK-293T) (PSI 1-6); higher = more stable;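 further: lentivirally expressed fusions sorted by FACS into six bins by GFP to DsRed ratio, PSI derived from sequencing read proportions per bin multiplied by bin number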
Conditions: c terminus: a fixed tail appended
Provide the reported protein stability index of each item.
Note: the reply should be a number with no unit written.

Return reported protein stability index; argument: E19Y 2.42

What about this variant? V18K 4.14

What about this variant? S13Y 2.75

What about this variant? D7T 3.55

What about this variant? L20H 4.51

What about this variant? S13E 3.2

What about this variant? Y1T 4.67

What about this variant? L11S 4.95

What about this variant? L11H 4.57

What about this variant? Q21M 3.06

What about this variant? Q23M 3.4

What about this variant? Y1C 4.78

What about this variant? K24R 3.21

What about this variant? H8A 3.79

What about this variant? N2P 4.76

What about this variant? V18R 3.43

What about this variant? N2L 5.05

What about this variant? E17K 3.43

What about this variant? Q23Y 3.19

What about this variant? L20W 3.19

What about this variant? L11G 4.58

What about this variant? L20T 4.39
